ASSAY NAME: Plasma VPA levels and pharmacokinetics (Example 1)
Type: in vivo, swine
PROTOCOL CONDITIONS: swine, plasma, intravenous, 150 mg/kg, plasma VPA level, Sham VPA (uninjured, 150 mg/kg over 3 h); three hours after start of infusion (end of infusion)
RECORDED ENDPOINT: concentration at 3 h
The answer should read as a number with its unit following.

Return concentration at 3 h (reported value) for this compound: `CCCC(CCC)C(=O)O` 291 µg/mL

###

ASSAY NAME: Plasma VPA levels and pharmacokinetics (Example 1)
Assay type: in vivo, swine
PROTOCOL CONDITIONS: pig, in vivo, iv, 100 mg/kg, VPA 100 (injured, 100 mg/kg over 3 h); read-out: Volume of distribution (Vd)
RECORDED ENDPOINT: Vd (L)
Use L as the unit, but write only the number.

Output Vd of `CCCC(CCC)C(=O)O` 16.1

###

ASSAY NAME: Plasma VPA levels and pharmacokinetics (Example 1)
Type: in vivo, swine
PROTOCOL CONDITIONS: pig, in vivo, iv, 100 mg/kg, 100 mg/kg over 2 h (injured)
RECORDED ENDPOINT: Clearance (mL/min)
Give your result in mL/min as a bare value.

Provide only the value of recorded Clearance for CCCC(CCC)C(=O)O [VPA, valproic acid] 91.7

###

ASSAY NAME: Pharmacokinetic Analysis (TABLE 1 in Example 1)
Assay type: in vivo, swine
PROTOCOL CONDITIONS: pig, in vivo, 150 mg/kg, group mean of 5 VPA-treated animals; read-out: Half-life (converted)
RECORDED ENDPOINT: Half-life (h)
API: value field is a number in h; no unit string.

// fetch Half-life given entry `CCCC(CCC)C(=O)O` 1.7

###

ASSAY NAME: Pharmacokinetic Analysis (TABLE 1 in Example 1)
Assay type: in vivo, swine
PROTOCOL CONDITIONS: pig, in vivo, 150 mg/kg, group mean of 5 VPA-treated animals; read-out: Clearance (converted)
RECORDED ENDPOINT: Clearance (mL/min)
Record the value in mL/min, omitting the unit from your answer.

Note down Clearance recorded for CCCC(CCC)C(=O)O [VPA, valproic acid] 187

###

ASSAY NAME: Plasma VPA levels and pharmacokinetics (Example 1)
Assay type: in vivo, swine
PROTOCOL CONDITIONS: swine, plasma, intravenous, 100 mg/kg, plasma VPA level, VPA 100 over 2 h (injured); 5 hours after VPA infusion start
RECORDED ENDPOINT: concentration at 5 h

// Input: `CCCC(CCC)C(=O)O` . Output its concentration at 5 h only. 74 µg/mL

###

ASSAY NAME: Plasma VPA levels and pharmacokinetics (Example 1)
Type: in vivo, swine
PROTOCOL CONDITIONS: pig, in vivo, iv, 150 mg/kg, VPA 150 (injured, 150 mg/kg over 3 h); read-out: Volume of distribution (Vd)
RECORDED ENDPOINT: Vd (L)
Hi! Could you send only the number? It should be in L, unit omitted.

Consider the compound `CCCC(CCC)C(=O)O` and give its recorded Vd. 24.2

###

ASSAY NAME: Serum VPA after IO versus IV infusion (Example 2)
Assay type: in vivo
PROTOCOL CONDITIONS: swine, IV group, 150 mg/kg over 3 hours
RECORDED ENDPOINT: AUC

Report AUC for `CCCC(CCC)C(=O)O` 294 to 356 µg·h/mL
